Origin of measurements: paper PMC12361874

- assayed target: hCAII isoenzyme purified from human erythrocytes (Homo sapiens)
property name: IC50 (µM)

(1) O=S(=O)([O-])c1cc(S(=O)(=O)[O-])c2c(N=Nc3ccc(S(=O)(=O)[O-])c4ccccc34)c(O)ccc2c1.[Na+].[Na+].[Na+]
(2) Cc1cc(C(C)(C)C)c(O)c(C(C)(C)C)c1 [Butylated Hydroxytoluene (BHT), Butylated hydroxytoluene (BHT)]
(3) C/C=C/C=C/C(=O)O
Exam item: Sort entries by IC50 from minimum to maximum value. Give me the labels in the order the question wants.
Marked response: 2, 1, 3

---

- assayed target: hCAI isoenzyme purified from human erythrocytes (Homo sapiens)
- Construct: hCAI isoenzyme purified from human erythrocytes; from tissue; host or cells: human erythrocytes
- Sequence (P00915 whole entry): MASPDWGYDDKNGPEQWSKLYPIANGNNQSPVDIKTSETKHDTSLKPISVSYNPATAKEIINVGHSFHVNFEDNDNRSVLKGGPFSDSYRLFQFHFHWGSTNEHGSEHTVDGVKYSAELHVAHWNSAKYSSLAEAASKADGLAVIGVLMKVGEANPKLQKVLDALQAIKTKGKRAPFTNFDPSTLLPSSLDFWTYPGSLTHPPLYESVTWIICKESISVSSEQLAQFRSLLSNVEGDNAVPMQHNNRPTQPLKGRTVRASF
- measurement protocol: Inhibition of esterase activity (p-nitrophenyl acetate) of purified hCAI; IC50, Ki, inhibition type
- Format: biochemical
- condition: [I] 0.023 mM; Lineweaver–Burk; read-out: Ki values
property name: Ki (µM)
Express the result in µM but write the number alone.

Exam item: Please look at this compound and report its Ki: O=C([O-])c1ccccc1-c1c2cc(I)c(=O)c(I)c-2oc2c(I)c([O-])c(I)cc12.[Na+].[Na+] [Erythrosine B]
Marked response: 3.9
